FYI, the data here is from patent US5710015A.

biological target: recombinant human brain inositol monophosphatase (IMP), SEQ. ID NO. 2, expressed in E. coli BL21-DE3 (Homo sapiens); assay: Kinetics and inhibition of recombinant human inositol monophosphatase ([14C]inositol release from DL-Ins(1)P); details: read-out: Ki (Pi); competitive inhibition; recombinant human IMP
Sequence (P29218 whole entry): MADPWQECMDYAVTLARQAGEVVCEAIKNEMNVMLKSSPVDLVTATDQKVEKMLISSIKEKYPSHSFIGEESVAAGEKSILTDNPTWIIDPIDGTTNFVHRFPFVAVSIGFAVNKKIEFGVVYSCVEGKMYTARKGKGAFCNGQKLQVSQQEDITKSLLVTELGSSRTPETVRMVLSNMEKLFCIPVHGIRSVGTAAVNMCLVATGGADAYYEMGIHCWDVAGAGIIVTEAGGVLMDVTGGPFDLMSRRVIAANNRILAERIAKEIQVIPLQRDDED
Parameter measured: Ki (µM)
Report as a plain number; the unit µM is understood.

Query (compound): O=P(O)(O)O ; field requested: Ki
140

====

target: bovine inositol monophosphatase (bovine enzyme, source not specified) (Bos taurus, UniProt P20456); assay: Inhibition of bovine inositol monophosphatase (parallel comparison); type: biochemical; conditions: competitive inhibitor, parallel experiment, read-out: apparent Ki
Sequence (P20456 whole entry): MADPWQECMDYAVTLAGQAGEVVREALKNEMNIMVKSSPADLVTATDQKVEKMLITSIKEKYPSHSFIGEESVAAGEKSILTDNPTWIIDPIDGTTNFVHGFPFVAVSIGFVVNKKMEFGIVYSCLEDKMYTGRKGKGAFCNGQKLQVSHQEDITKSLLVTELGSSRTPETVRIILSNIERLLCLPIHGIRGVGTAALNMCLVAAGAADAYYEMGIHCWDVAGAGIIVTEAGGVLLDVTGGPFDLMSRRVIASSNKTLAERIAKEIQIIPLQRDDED
Parameter measured: pKi
Quick note: pKi values are minus log10 of concentrations in mol/L.

Query (compound): O=P(O)(O)O[C@H]1CC[C@H](O)C[C@H]1O ; field requested: pKi
5.96

====

molecular target: recombinant human brain inositol monophosphatase (IMP), SEQ. ID NO. 2, expressed in E. coli BL21-DE3 (Homo sapiens); experiment: Kinetics and inhibition of recombinant human inositol monophosphatase ([14C]inositol release from DL-Ins(1)P)
Parameter measured: Ki (nM)
Report as a plain number; the unit nM is understood.

Query (compound): O=P(O)(O)O[C@H]1CC[C@H](O)C[C@H]1O ; field requested: Ki
2700
